B1: library; the commonest letter at each place (parent)
chain: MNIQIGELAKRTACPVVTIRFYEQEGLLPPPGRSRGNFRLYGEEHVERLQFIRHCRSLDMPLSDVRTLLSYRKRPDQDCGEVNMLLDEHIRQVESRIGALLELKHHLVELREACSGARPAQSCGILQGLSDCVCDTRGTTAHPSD

- Variants of: B1
- PROTOCOL_TEXT: sfGFP reporter fluorescence (15 h) (µM FITC); higher = stronger transcriptional activation
- RUN_PARAMETERS: library round: Round 1; ligand: 30 µM Zn
Recorded sfGFP reporter fluorescence by entry
Number, no unit, nothing else.

Solved entries (count: 10):
{"BIOPOLYMER_SEQUENCE": "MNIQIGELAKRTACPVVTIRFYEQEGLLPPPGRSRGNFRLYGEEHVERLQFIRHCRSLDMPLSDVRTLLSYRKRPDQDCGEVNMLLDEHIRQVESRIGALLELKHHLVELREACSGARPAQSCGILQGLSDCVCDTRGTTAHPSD [unchanged]", "sfGFP reporter fluorescence": 0.487}
{"BIOPOLYMER_SEQUENCE": "MNIQIGELAKRTACPVVTIRFYEQEGLLPPPGRSRGNFRLYGEEHVERLQFIRHCRSLDMPLSDVRTLLSYRKRPDQDCGEVNMLLDEHIRQVESRIGALLELKHHLVHLREACSGARPAQSCGILQGLSDCVCATRGTTAHPSD [E109H D135A]", "sfGFP reporter fluorescence": 0.254}
{"BIOPOLYMER_SEQUENCE": "MNIQIGELAARTACPVVTIRFYEQEGLLPPPGRSRGNFRLYGEEHTERLQFIRHCRSLDMPLSDVRTLLSYRKRPDQDCGEVNMLLDEHIRQVESRIGALLELKHHLVELREACSGARPAQSCGILQGLSDCVTDTRGTTAHPSD [K10A V46T C134T]", "sfGFP reporter fluorescence": 0.226}
{"BIOPOLYMER_SEQUENCE": "MNIQIGELAKRTACPVVTIRFYEQEGLLPPPGRSRGNFRLYGEEHVERLQFIRHCRSLDMPLSDVRTLLSYRKRPDQDCGEVNMLLDEHIRQVESRIGALLELKHHLVELREACSGARPAQSCGILQGLSMCVCATRGTTAHPSD [D131M D135A]", "sfGFP reporter fluorescence": 0.573}
{"BIOPOLYMER_SEQUENCE": "MNIQIGELAKRTACPVVTIRFYEQEGLLPPPGRSRGNFRLYGEEHVERLQFIRHCRSLDLPLSKVRTLLSYRKRPDQDCGEVNMLLDEHIRQVESRIGALLELVHHLVELREACSGARPAQSCGILQGLSCCVCDTRGTTAHPSD [M60L D64K K104V D131C]", "sfGFP reporter fluorescence": 1.91}
{"BIOPOLYMER_SEQUENCE": "MNMQIGELAKRTACPVVTIRFYEQEGLLPPPGRSRGNFRLYGEEHVERLQFIRHCRSLDMPLSDVRTLLSYRKRPDQDCGEVNMLLDEHIRQVESRIGALLELKHHLVELREACSGARPAQSCGILQGLSCCVCDTRGTTAHPSD [I3M D131C]", "sfGFP reporter fluorescence": 0.446}
{"BIOPOLYMER_SEQUENCE": "MNIQIGELAKRTACPVVTIRFYEQEGLLPPPGRSRGNFRLYGEEHVERLQFIRHCRSLDMPLSTVRTLLSYRKRPDQDCGEVNMLLDEHIRQVESRIGALLELKHHLVELREACSGARPAQSCGILGGLSDCVCDTRGTTAHPSD [D64T Q127G]", "sfGFP reporter fluorescence": 0.594}
{"BIOPOLYMER_SEQUENCE": "MNIQIGELAKRTACPVVTIRFYEQEGLLPPPGRSRGNFRLYGEEHVERLQFIRHCRSLDMDLSKVRTLLSYRKRPDQDCGEVNMLLDEHIRQVESRIGALLELKHHCVELREACSGARPAQSCGILQMLSDCVCDTRGTTAHPSD [P61D D64K L107C G128M]", "sfGFP reporter fluorescence": 2.38}
{"BIOPOLYMER_SEQUENCE": "MNIQIGELAKRTACPVVTIRFYEQEGLLPPPGRSRGNFRLYGEEHVERLQFIRHCRSLDMPLSDVRTLLSYRKRPDQDCGEVNALLDEHIRQVESRGGALLELKHHLVELREACSGARPAQSCGILQGLSDCVCDTRGTTAHPSD [M84A I97G]", "sfGFP reporter fluorescence": 0.218}
{"BIOPOLYMER_SEQUENCE": "MNIQIGELAKRTACPVVTIRFYEQEGLLPPPGRSRGNFRLYGEEHVERLQFIRHCRSLDMPLSKVRTLLSYRKRPDQDLGEVNMLLDEHIRQVESRIGALLELKHHLVELREACSGARPAQSCGILQGLSDCVCDTRGTTAHPSD [D64K C79L]", "sfGFP reporter fluorescence": 0.0572}

Prompt: For the variant MNIQIGELAKRTACPVVTIRFYEQEGLLPPPGRSRGNFRLYGEEHVERLQFIRHCRSLDMPLSKVRTLLSYRKRPDQDCGEVNMLLDEHIRQVESRIGALLELKHHLVELREAFSGARPAQSCGILQGLSDCVCDTRGTTAHPSD [D64K C114F] , what sfGFP reporter fluorescence is on record?
Completion: 0.0596

Prompt: For the variant MNIQIGELAKRTACPVVTIRFYEQEGLLPPPGRSRGNFRLYGEEHVERLQFIRHCRSLDMPLSDVRTLLSYRKRPDQDCGEVNMLLDEHIRQVESRIGALLELAHHLVELREACSGARPAQSCGILQMLSDCVCDTRGTTAHPSD [K104A G128M] , what sfGFP reporter fluorescence is on record?
Completion: 0.897

Prompt: For the variant MNIQIGELAKRTACPVVTIRFYEQEGLLPPPGRSRGNFRLYGEEHVERLQFIRHCRSLDMPLSDVRTLLSYRKRPDQDCGEVTMLLDEHIRQVESRIGALLELKHHLVELREACSGARPAQSLGILQGLSDCVCDTRGTTAHPSD [N83T C123L] , what sfGFP reporter fluorescence is on record?
Completion: 0.059

Prompt: For the variant MNIQIGELAKRTACPVVTIRFYEQEGLLPPPGRSRGNFRLYGEEHVERLQFIRHCRSLDMPLSDVRTLLSYRKRPDQDCGEVYMLLDEHIRQVESRIGALLELVHHLVELREACSGARPAQSCGILQGLSDCVCDTRGTTAHPSD [N83Y K104V] , what sfGFP reporter fluorescence is on record?
Completion: 0.0894

Prompt: For the variant MNIQIGELAKRTACPVVTIRFYEQEGLLPPPGRSRGNFRLYGEEHVERLQFIRHCRSLDMPLSDVRTLLSYRKRPDQDCGEVNMLLDEHIRQVESRIGALLELKHHLVALLEACSGARPAQSCGILQGLSDCVCDTRGTTAHPSD [E109A R111L] , what sfGFP reporter fluorescence is on record?
Completion: 0.165

Prompt: For the variant MNIQIGELAKRTACPVVTIRFYEQEGLLPPPGRSRGNFRLYGEEHVERLQFIRHCRSLDMNLSDVRTLLSYRKRPDQDCGEVNMLLDEHIRQVESRIGALLELKHHLVELREACSGARPAQSCGILQGLSACVCDTRGTTAHWSD [P61N D131A P143W] , what sfGFP reporter fluorescence is on record?
Completion: 0.59

Origin of values: the supplement of paper PMC12783771
